Tested on: Digiatria sanguinalis
assay summary: Test of herbicidal activities (greenhouse pot method)
Type: in vivo
experimental parameters: single dose 300 g ai./h, treated before/after germination, 15 days later, greenhouse pot
value type: Herbicidal activity Digiatria sanguinalis (inhibition level)

// worked examples, Herbicidal activity Digiatria sanguinalis (inhibition level) included
- molecule: "Cc1nn(-c2cc3nc(SCc4cccc(Br)c4)sc3cc2F)c(=O)n1C(F)F"
  observed: "B (80 ≦ B < 90%)"
- molecule: "Cc1nn(-c2cc3nc(S(=O)(=O)Cc4ccccc4)sc3cc2F)c(=O)n1C(F)F"
  observed: "A (90 ≦ A ≦ 100%)"
- molecule: "Cc1nn(-c2cc3nc(SCc4csc(Cl)n4)sc3cc2F)c(=O)n1C(F)F"
  observed: "C (60 ≦ C < 80%)"
- molecule: "CCS(=O)(=O)c1nc2cc(-n3nc(C)n(C(F)F)c3=O)c(Cl)cc2s1"
  observed: "A (90 ≦ A ≦ 100%)"
- molecule: "Cc1nn(-c2cc3nc(SCc4ccccc4)sc3cc2Cl)c(=O)n1C(F)F"
  observed: "C (60 ≦ C < 80%)"
- molecule: "COCCSc1nc2cc(-n3nc(C)n(C(F)F)c3=O)c(Cl)cc2s1"
  observed: "A (90 ≦ A ≦ 100%)"
- molecule: "Cc1nn(-c2cc3nc(S(=O)(=O)Cc4ccccc4)sc3cc2Cl)c(=O)n1C(F)F"
  observed: "C (60 ≦ C < 80%)"
- molecule: "CSc1nc2cc(-n3nc(C)n(C(F)F)c3=O)c(F)cc2s1"
  observed: "A (90 ≦ A ≦ 100%)"
- molecule: "Cc1nn(-c2cc3nc(SCc4ccc(Cl)cc4)sc3cc2Br)c(=O)n1C(F)F"
  observed: "C (60 ≦ C < 80%)"
- molecule: "Cc1nn(-c2cc3nc(S(=O)(=O)Cc4ccccc4F)sc3cc2F)c(=O)n1C(F)F"
  observed: "A (90 ≦ A ≦ 100%)"

## Input Form field: reported Herbicidal activity Digiatria sanguinalis (inhibition level) of C=CCSc1nc2cc(-n3nc(C)n(C(F)F)c3=O)c(Cl)cc2s1
## Output B (80 ≦ B < 90%)

## Input Form field: reported Herbicidal activity Digiatria sanguinalis (inhibition level) of CCOC(=O)C(C)Sc1nc2cc(-n3nc(C)n(C(F)F)c3=O)c(Cl)cc2s1 (stereo not drawn)
## Output A (90 ≦ A ≦ 100%)

## Input Form field: reported Herbicidal activity Digiatria sanguinalis (inhibition level) of Cc1nn(-c2cc3nc(SCc4cccc(Cl)c4)sc3cc2F)c(=O)n1C
## Output A (90 ≦ A ≦ 100%)

----------
Test system: Setaria viridis
assay summary: Test of herbicidal activities (greenhouse pot method)
Type: in vivo
experimental parameters: Setaria viridis, 360 h; single dose 300 g ai./h, treated before/after germination, 15 days later, greenhouse pot; read-out: Herbicidal activity Setaria viridis (inhibition level)
value type: inhibition at 300 g/ha

- compound: "Cc1nn(-c2cc3nc(S(=O)(=O)Cc4ccccc4Cl)sc3cc2Cl)c(=O)n1C(F)F"
  observed: "60 to 80%"
- compound: "Cc1nn(-c2cc3nc([S+]([O-])Cc4ccccc4)sc3cc2F)c(=O)n1C (centres unmarked)"
  observed: "60 to 80%"
- compound: "Cc1nn(-c2cc3nc([S+](C)[O-])sc3cc2F)c(=O)n1C (centres unmarked)"
  observed: "60 to 80%"
- compound: "CCCS(=O)(=O)c1nc2cc(-n3nc(C)n(C)c3=O)c(F)cc2s1"
  observed: "60 to 80%"

Consider now this further compound.
## Input Form field: reported inhibition at 300 g/ha of CCOC(=O)CSc1nc2cc(-n3nc(C)n(C(F)F)c3=O)c(Cl)cc2s1
## Output 90 to 100%

Cited source: patent US7666890B2
